assay: RP, Thermo Scientific Acclaim RSLC 120 C18, 100 × 2.1 mm, 2.2 µm, 30 °C, 0.2 mL/min, estimated dead time 1.1 min; A: 90% water + 10% methanol + 0.01% formic acid + 5 mM ammonium formate, pH 3.61; B: methanol + 0.01% formic acid + 5 mM ammonium formate, pH 3.61; gradient (min/%B) 0/1 1/1 2/39 13/99.9 15/99.9 15.1/1 20.1/1; settings: stereoisomer not certain
Measurement kind: LC retention time (min)

O=C(Nc1ccc(Cl)cc1C(O)c1ccccc1)c1ccncc1 (centres undefined) [Inabenfide]: 9.27
Nc1cn[nH]c(=O)c1Cl: 2.32
CCCC1COC(Cn2cncn2)(c2ccc(Cl)cc2Cl)O1 (centres undefined): 11
CN1CCCCC1Cn1cc(C(=O)c2ccccc2I)c2ccccc21 (centres undefined): 7.11
COc1nc(C)nc(Cl)c1NC1=NCCN1: 3.26
CC1CC2C(C(O)CC3(C)C2CCC3(O)C(=O)CO)C2(C)C=CC(=O)C=C12 (centres undefined): 8.75
CC1=C(C(=O)Nc2ccccc2)S(=O)(=O)CCO1: 5.59
COC=C(C(=O)O)c1ccccc1Oc1cc(Oc2ccccc2C#N)ncn1: 8.18
CC(C(=O)O)c1cccc(C(=O)c2ccccc2)c1 (centres undefined): 8.53

---

Listed molecules paired with reported LC retention time
assay: RP, Waters ACQUITY UPLC BEH C18, 100 × 2.1 mm, 1.7 µm, 30 °C, 0.35 mL/min, estimated dead time 0.63 min; A: water + 0.01% formic acid + 5 mM ammonium formate, pH 3.71; B: acetonitrile + 0.01% formic acid, pH 3.71; gradient (min/%B) 0/10 3/10 22/100 30/100 30.1/10 40/10; conditions: stereoisomer not certain
Measurement kind: LC retention time (min)

Cn1cnc2c1c(=O)[nH]c(=O)n2C [Theobromine]: 1.23
CC(N)Cc1ccccc1 (stereo unspecified) [Amphetamine]: 2.99
O=C(O)c1cn(C2CC2)c2cc(N3CCNCC3)c(F)cc2c1=O [Ciprofloxacin]: 5.54
CCN(CC)CC(=O)Nc1c(C)cccc1C [Lidocaine]: 5.29
COCCc1ccc(OCC(O)CNC(C)C)cc1 (stereo unspecified) [Metoprolol]: 6.53
COC(=O)Nc1nc2ccc(Sc3ccccc3)cc2[nH]1 [Fenbendazole]: 12.2
NC(=O)N=C(N)N [Guanylurea]: 0.83
CCC(C)C1OC2(C=CC1C)CC1CC(CC=C(C)C(OC3CC(OC)C(OC4CC(OC)C(O)C(C)O4)C(C)O3)C(C)C=CC=C3COC4C(O)C(C)=CC(C(=O)O1)C34O)O2 (stereo unspecified) [Avermectin]: 18.8
CC1CCc2cc(F)cc3c(=O)c(C(=O)O)cn1c23 (stereo unspecified) [Flumequine]: 9.84
c1ccc2n[nH]nc2c1 [Benzotriazole (BTR)]: 3.69
CCNc1nc(N)nc(Cl)n1 [Atrazine-desisopropyl]: 3.51

---

experiment: RP, Waters ACQUITY UPLC BEH C18, 100 × 2.1 mm, 1.7 µm, 35 °C, 0.35 mL/min, estimated dead time 0.63 min; A: water + 0.01% formic acid + 5 mM ammonium formate, pH 3.71; B: acetonitrile + 0.01% formic acid, pH 3.71; gradient (min/%B) 0/5 0.5/5 16/95 16.1/99 19/99 19.1/5 21/5; details: stereoisomer not certain
Please map values of LC retention time to classes as shown: lo = under 4 min, med = from 4 min up to 7 min, hi = 7 min and over

COc1cc(Cc2cnc(N)nc2N)cc(OC)c1OC: lo
CCN(CC)CC(=O)Nc1c(C)cccc1C: med
COC1C=COC2(C)Oc3c(C)c(O)c4c(O)c(c5c(nc6cc(C)ccn65)c4c3C2=O)NC(=O)C(C)=CC=CC(C)C(O)C(C)C(O)C(C)C(OC(C)=O)C1C (stereo not drawn): hi
CCC(C)C1OC2(CCC1C)CC1CC(CC=C(C)C(OC3CC(OC)C(OC4CC(OC)C(O)C(C)O4)C(C)O3)C(C)C=CC=C3COC4C(O)C(C)=CC(C(=O)O1)C34O)O2 (stereo not drawn): hi
CC1CCc2cc(F)cc3c(=O)c(C(=O)O)cn1c23 (stereo not drawn): hi
CCOc1ccc(NC(C)=O)cc1: med
NC1Cc2cc3c(cc2C1)OCO3: lo
CN(C)CC1CCCCC1(O)c1cccc(O)c1 (stereo not drawn): lo
CCN(CC)C(=O)Nc1ccc(OCC(O)CNC(C)(C)C)c(C(C)=O)c1 (stereo not drawn): med
CCNc1nc(Cl)nc(NC(C)C)n1: hi
CCC(C)OC(=O)N1CCCCC1CCO (stereo not drawn): hi

---

Listed compounds paired with reported LC retention time
test: RP, Waters ACQUITY UPLC BEH C18, 100 × 2.1 mm, 1.7 µm, 35 °C, 0.35 mL/min, estimated dead time 0.63 min; A: water + 0.01% formic acid + 5 mM ammonium formate, pH 3.71; B: acetonitrile + 0.01% formic acid, pH 3.71; gradient (min/%B) 0/5 0.5/5 16/95 16.1/99 19/99 19.1/5 21/5; details: stereoisomer not certain
Measurement kind: LC retention time (min)

CCN1CCN(C(=O)NC(C(=O)NC2C(=O)N3C(C(=O)O)=C(CSc4nnnn4C)CSC23)c2ccc(O)cc2)C(=O)C1=O (stereo not given): 4.19
CCC(C)C1OC2(C=CC1C)CC1CC(CC=C(C)C(OC3CC(OC)C(OC4CC(OC)C(NC)C(C)O4)C(C)O3)C(C)C=CC=C3COC4C(O)C(C)=CC(C(=O)O1)C34O)O2 (stereo not given): 12.6
CN=C(NC#N)NCCSCc1nc[nH]c1C: 2.11
Cn1cnc2c1c(=O)[nH]c(=O)n2C: 1.65
CC(C)(C)NCC(O)c1ccc(O)c(CO)c1 (stereo not given): 1.92
COC(=O)c1ccccc1C(=O)OC [Phthalate-Dimethyl]: 7.03
COc1ccc(Cc2cnc(N)nc2N)cc1OC: 3.48
CC(N)Cc1ccc2c(c1)OCO2 (stereo not given): 3.46
CC(C)NCC(O)COc1cccc2[nH]ccc12 (stereo not given): 3.7
N#CSCSc1nc2ccccc2s1: 10.1
COP(N)(=O)SC (stereo not given): 1.34
Cn1c(=O)c2[nH]cnc2n(C)c1=O: 2.31
CCSCc1ccccc1OC(=O)NC: 8.02
CC(C)NCC(O)COc1ccc(COCCOC(C)C)cc1 (stereo not given): 5.91
Nc1nnc(-c2cccc(Cl)c2Cl)c(N)n1: 4.66
Cn1c(=O)c2c(ncn2C)n(C)c1=O: 3.08
CCNc1nc(N)nc(Cl)n1: 3.58
CC(C)NCC(O)COc1cccc2ccccc12 (stereo not given): 6.49
Cc1cccc(C)c1OCC(=O)NC(Cc1ccccc1)C(O)CC(Cc1ccccc1)NC(=O)C(C(C)C)N1CCCNC1=O (stereo not given): 11
NC(=O)N=C(N)N: 0.86

---

assay: RP, Thermo Scientific Acclaim RSLC 120 C18, 100 × 2.1 mm, 2.2 µm, 30 °C, 0.2 mL/min, estimated dead time 1.1 min; A: 90% water + 10% methanol + 0.01% formic acid + 5 mM ammonium formate, pH 3.61; B: methanol + 0.01% formic acid + 5 mM ammonium formate, pH 3.61; gradient (min/%B) 0/1 1/1 2/39 13/99.9 15/99.9 15.1/1 20.1/1; settings: stereoisomer not certain
Decide using LC retention time: a value greater than or equal to 7 min is met, a smaller one is not met.

CN(C)c1ccc(N=Nc2ccccc2)cc1: met
CN(C)CCC(c1ccc(Br)cc1)c1ccccn1 (centres undefined): not met
CN(C)CCc1c[nH]c2ccc(Cn3cncn3)cc12: not met
Cc1c(N(C)CS(=O)(=O)O)c(=O)n(-c2ccccc2)n1C: not met
C[Si](Cn1cncn1)(c1ccc(F)cc1)c1ccc(F)cc1: met
O=C(O)C(c1ccccc1Cl)N1CCc2sccc2C1 (centres undefined): not met
CC[N+]([O-])(CC)CC(=O)Nc1c(C)cccc1C [Lidocaine-N-oxide]: not met
CC1COCc2cc3c(cc21)C(C)(C)C(C)C3(C)C (centres undefined) [Galaxolide]: met
CCCC(C(=O)c1ccc(C)cc1)N1CCCC1 (centres undefined): not met

---

assay: RP, Thermo Scientific Acclaim RSLC 120 C18, 100 × 2.1 mm, 2.2 µm, 30 °C, 0.2 mL/min, estimated dead time 1.1 min; A: 90% water + 10% methanol + 0.01% formic acid + 5 mM ammonium formate, pH 3.61; B: methanol + 0.01% formic acid + 5 mM ammonium formate, pH 3.61; gradient (min/%B) 0/1 1/1 2/39 13/99.9 15/99.9 15.1/1 20.1/1; details: stereoisomer not certain
Please map values of LC retention time to classes as shown: lower: < 7 min; middle: ≥ 7 min and < 9 min; upper: ≥ 9 min

CN1CC2c3ccccc3Oc3ccc(Cl)cc3C2C1 (centres undefined): middle
CC(CC(=O)Nc1ccc(Cl)cc1Cl)N1CCCCC1 (centres undefined): lower
CCCOc1ccc(S(=O)(=O)N2CCN(CCO)CC2)cc1-c1nc2c(CCC)cn(CC)c2c(=O)[nH]1: upper
OCCN1CCN(CCCN2c3ccccc3Sc3cccnc32)CC1: middle
CCCC(C(=O)c1ccc2c(c1)OCO2)N1CCCC1 (centres undefined): lower
CN(C)CC=C(c1ccc(Br)cc1)c1cccnc1: lower
CCCSP(=S)(OCC)Oc1ccc(Cl)cc1Cl (centres undefined): upper
